Reference source: the Human Domainome abundance scans (Beltran et al. 2025)

B1: Zinc finger homeobox protein 3, residues 2147 to 2202; numbered along this chain, Q15911 (parent)
chain: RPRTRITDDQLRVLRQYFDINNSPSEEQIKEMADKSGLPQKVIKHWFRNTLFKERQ

variants of: B1; test: abundance fitness (aPCA) (normalised: wild type 0, dead -1); higher = more abundant; growth selection in yeast, the domain comes from the species named; settings: Homo sapiens
Below, each entry is listed alongside its reported abundance fitness.
# print the numeric value only

Record excerpt, results attached:
mutation list	abundance fitness
R55E	-0.173
L14N	-1.22

Next, consider the following variant.
## Task May I ask what abundance fitness has been recorded for E54K ?
## Result -0.344
